# System: HIV-1 strain 92HT599
# PROTOCOL_DETAILS: Antiviral activity, p24 estimation in HIV-1 92HT599 infected MT2 cells
# Assay type: cell-based
# APPLIED_CONDITIONS: Human immunodeficiency virus 1, 0% serum, ~96 hours, read-out: 92HT599-Antiviral activity IC50 (nM) 0%
QUANTITY_KIND: IC50

Prompt line: Check the records and state IC50 for Cc1nnc(C(C)C)n1CCN1CCN(C(=O)N[C@@]23CC[C@]4(C)[C@H](CC[C@@H]5[C@@]6(C)CC[C@H](OC(=O)[C@H]7C[C@@H](C(=O)O)C7(C)C)C(C)(C)[C@@H]6CC[C@]54C)C2=C(C(C)C)C(=O)C3)CC1
Response line: > 10 nM

Prompt line: Check the records and state IC50 for CC(C)C1=C2[C@H]3CC[C@@H]4[C@@]5(C)CC[C@H](OC(=O)[C@H]6C[C@@H](C(=O)O)C6(C)C)C(C)(C)[C@@H]5CC[C@@]4(C)[C@]3(C)CC[C@@]2(NC(=O)NC(C)(C)c2ccc(Cl)cc2)CC1=O
Response line: < 5 nM

Prompt line: Check the records and state IC50 for CC(C)C1=C2[C@H]3CC[C@@H]4[C@@]5(C)CC[C@H](OC(=O)[C@H]6C[C@@H](C(=O)O)C6(C)C)C(C)(C)[C@@H]5CC[C@@]4(C)[C@]3(C)CC[C@@]2(NC(=O)NC2(c3ccc(Cl)cc3)CC2)CC1=O
Response line: < 5 nM

Prompt line: Check the records and state IC50 for CC(C)C1=C2[C@H]3CC[C@@H]4[C@@]5(C)CC[C@H](OC(=O)[C@H]6C[C@@H](C(=O)O)C6(C)C)C(C)(C)[C@@H]5CC[C@@]4(C)[C@]3(C)CC[C@@]2(NC(=O)N2CCC[C@H]2CN2CCCC2)CC1=O
Response line: < 5 nM

====

# Tested on: HIV-1 strain 92HT599
# PROTOCOL_DETAILS: Antiviral activity, p24 estimation in HIV-1 92HT599 infected MT2 cells
# Type: cell-based
# APPLIED_CONDITIONS: Human immunodeficiency virus 1, 0% serum, ~96 hours, read-out: 92HT599-Antiviral activity IC50 (nM) 0%
QUANTITY_KIND: IC50

Prompt line: Check the records and state IC50 for CC(C)C1=C2[C@H]3CC[C@@H]4[C@@]5(C)CC[C@H](OC(=O)[C@H]6C[C@@H](C(=O)O)C6(C)C)C(C)(C)[C@@H]5CC[C@@]4(C)[C@]3(C)CC[C@@]2(NC(=O)N2CCC[C@H]2c2ncc(-c3ccccc3)n2CCN(C)C)CC1=O
Response line: < 5 nM

Prompt line: Check the records and state IC50 for CC(C)C1=C2[C@H]3CC[C@@H]4[C@@]5(C)CC[C@H](OC(=O)[C@H]6C[C@@H](C(=O)O)C6(C)C)C(C)(C)[C@@H]5CC[C@@]4(C)[C@]3(C)CC[C@@]2(NC(=O)NC(C)(C)c2ncc(-c3ccccc3)[nH]2)CC1=O
Response line: < 5 nM

====

# System: HIV-1 strain 92HT599
# PROTOCOL_DETAILS: Antiviral activity, p24 estimation in HIV-1 92HT599 infected MT2 cells
# Type: cell-based
# APPLIED_CONDITIONS: Human immunodeficiency virus 1, 0% serum, ~96 hours, read-out: 92HT599-Antiviral activity IC50 (nM) 0%
Counter-ions that a name gives are not always drawn.
QUANTITY_KIND: IC50

Prompt line: Check the records and state IC50 for CC(C)C1=C2[C@H]3CC[C@@H]4[C@@]5(C)CC[C@H](OC(=O)[C@H]6C[C@@H](C(=O)O)C6(C)C)C(C)(C)[C@@H]5CC[C@@]4(C)[C@]3(C)CC[C@@]2(NC(=O)N(CCN(C)C)Cc2ccc(Cl)cc2)CC1=O [Example 1, hydrochloride]
Response line: < 5 nM

Prompt line: Check the records and state IC50 for CC(C)C1=C2[C@H]3CC[C@@H]4[C@@]5(C)CC[C@H](OC(=O)[C@H]6C[C@@H](C(=O)O)C6(C)C)C(C)(C)[C@@H]5CC[C@@]4(C)[C@]3(C)CC[C@@]2(NC(=O)N2CCC[C@H]2c2ncc(-c3ccccc3)[nH]2)CC1=O [Example 3]
Response line: 5.01 to 10 nM

Prompt line: Check the records and state IC50 for CC(C)C1=C2[C@H]3CC[C@@H]4[C@@]5(C)CC[C@H](OC(=O)[C@H]6C[C@@H](C(=O)O)C6(C)C)C(C)(C)[C@@H]5CC[C@@]4(C)[C@]3(C)CC[C@@]2(NC(=O)N(CCN2CCCCC2)Cc2ccc(Cl)cc2)CC1=O [Example 11, hydrochloride]
Response line: < 5 nM

Prompt line: Check the records and state IC50 for Cc1nnc(C(C)C)n1C1CC2CCC(C1)N2C(=O)N[C@@]12CC[C@]3(C)[C@H](CC[C@@H]4[C@@]5(C)CC[C@H](OC(=O)[C@H]6C[C@@H](C(=O)O)C6(C)C)C(C)(C)[C@@H]5CC[C@]43C)C1=C(C(C)C)C(=O)C2 (stereo partly shown) [Example 8]
Response line: 5.01 to 10 nM

====

# Test system: HIV-1 strain 92HT599
# PROTOCOL_DETAILS: Antiviral activity, p24 estimation in HIV-1 92HT599 infected MT2 cells
# Type: cell-based
# APPLIED_CONDITIONS: Human immunodeficiency virus 1, 0% serum, ~96 hours, read-out: 92HT599-Antiviral activity IC50 (nM) 0%
Consider the following compounds; for each one, report its IC50.

Prompt line: Check the records and state IC50 for CC(C)C1=C2[C@H]3CC[C@@H]4[C@@]5(C)CC[C@H](OC(=O)[C@H]6C[C@@H](C(=O)O)C6(C)C)C(C)(C)[C@@H]5CC[C@@]4(C)[C@]3(C)CC[C@@]2(NC(=O)N(CCN(C)C)CC2(c3ccc(Cl)cc3)CC2)CC1=O
Response line: < 5 nM

Prompt line: Check the records and state IC50 for CC(C)C1=C2[C@H]3CC[C@@H]4[C@@]5(C)CC[C@H](OC(=O)[C@H]6C[C@@H](C(=O)O)C6(C)C)C(C)(C)[C@@H]5CC[C@@]4(C)[C@]3(C)CC[C@@]2(NC(=O)NCc2ccc(Cl)cc2)CC1=O
Response line: 5.01 to 10 nM
